# PROTOCOL DESCRIPTION: yeast display, Sf9 membrane polyspecificity reagent, FACS + sequencing; frameworks hold sequencing errors
OBSERVED PROPERTY: polyreactivity (PSR sort gate)

>  <ENTRY SEQUENCE>
QVQLVESGGGLVQAGGSLRLSCAASGSIFRENAMGWYRQAPGKERELVAAITDGGDRTYYADSVKGRFTISRDNAKNTVYLQMNSLKPEDTAVYYCAARWLYWPRYNSLVYTHRDSWGQGTQVTVSS

>  <MEAS VALUE>
low polyreactivity

$$$$
>  <ENTRY SEQUENCE>
QVQLVESGGGLVQAGGSLRLSCAASGFTFNANAMGWYRQAPGKERELVAFITRSGGRTYYADSVKGRFTISRDNAKNTVYLQMNSLKPEDTAVYYCAKEGPSRVYQGTDSASDYWGQGTQVTVSS

>  <MEAS VALUE>
high polyreactivity

$$$$
>  <ENTRY SEQUENCE>
QVQLVESGGGLVQAGGSLRLSCAASGRIFKINAMGWYRQAPGKERELVATITRDGRTYYADSVKGRFTISRDNAKNTVYLQMNSLKPEDTAVYYCNVRRAFSGWRGYDYWGQGTQVTVSS

>  <MEAS VALUE>
high polyreactivity

$$$$
>  <ENTRY SEQUENCE>
EVQLQESGGGLVQAGGSLRLSCAASGYTYNEYVMGWYRQATGKERELVAAISGSGGSTYYADSVKGRFTISRDNAKNTVYLQMNSLKPEDTAVYYCAARGYNSRGYDMDYWGQGTQVTVSS

>  <MEAS VALUE>
high polyreactivity

$$$$
>  <ENTRY SEQUENCE>
QVQLVESGGGLVQAGGSLRLSCAASGITLKPNAMGWYRQAPGKERELVAAIDSGGSTNYADSVKGRFTISRDNAKNTVYLQMNSLKPEDTAVYYCAAPYQDRDLQVSYSTYEGGYWGQGTQVTVSS

>  <MEAS VALUE>
low polyreactivity

$$$$

---

# PROTOCOL DESCRIPTION: yeast display, Sf9 membrane polyspecificity reagent, FACS + sequencing; frameworks hold sequencing errors

>  <ENTRY SEQUENCE>
QVQLVESGGGVVQAGGRLRLSCAASGSIFTYYAMGWYRQAPGKERELVAAISYGGGSTYYADSVKGRFTISRDTAKNTVYLQMNSLKPEDTAVYYCNRVVGVKYGYWGQGTQVTVSS

>  <polyreactivity (PSR sort gate)>
high polyreactivity

$$$$
>  <ENTRY SEQUENCE>
QVQLVESGGGLVQAGGSLRLSCAASGFIFRYYAMGWYRQAPGKERELVAAISRSGGSTYYADSVKGRFTISRDNAKNTVYLQMNSLKPEDTAVYYCAALQSRSWYQFNYWGQGTQVTVSS

>  <polyreactivity (PSR sort gate)>
high polyreactivity

$$$$
>  <ENTRY SEQUENCE>
QVQLVEPGGGLVHAGGSLRLSCAASGRIYYVYAMGWYRQAPGKERELVAGIRSGGSTNYADSVKGRFTISRDNAKNTVYLQMNSLNPEDTAVYYCAVQSYGALSPQLVYRRYDYWGQGTQVTVSS

>  <polyreactivity (PSR sort gate)>
high polyreactivity

$$$$
>  <ENTRY SEQUENCE>
QVQLVESGGGLVQAGGSLRLSCAASGFIFTDYAMAWYRQAPGKERELVAAISYGGRTYYADSVKGRFTISRDNAKNTVYLQMNSLKPEDTAVYYCAAEKWDRYSSWSDYWGQGTQVTVSS

>  <polyreactivity (PSR sort gate)>
high polyreactivity

$$$$
>  <ENTRY SEQUENCE>
QVQLVESGGGLVQAGGSLRLSCAASGRTFLGYAMGCYRQAPGKERELVATITKRGSSTYYADSVKGRFTISRDNANNTVYLQMTSLKPEDTAVYYCAARRYPRRFAIDYWGQGTQVTVSS

>  <polyreactivity (PSR sort gate)>
high polyreactivity

$$$$
>  <ENTRY SEQUENCE>
QVQLVESGGGLVQAGGSLRLSCAASGSIFRVYAMGWYRQAPGKERELVAAISSSGVRTSYADSVKGRFTISRDNAKNTVYLQMNSLKPEDTAVYYCNAAYGRRYDYWGQGTQVTVSS

>  <polyreactivity (PSR sort gate)>
high polyreactivity

$$$$
>  <ENTRY SEQUENCE>
QVQLVESGGGLVQAGGSLRLSCAASGRTFWYYARGWYRQAPGKERELVAYADSVKGRFTISRDNAKNTVYLQMNSLKQEDTAVYYCAVGPVVWFSSSLYYTDYYYWGQGTQVTVSS

>  <polyreactivity (PSR sort gate)>
low polyreactivity

$$$$
>  <ENTRY SEQUENCE>
QVQLVESGGGLVQAGGSLRLSCAASGRIFYAYAMGWYRQAPGKERELVAAISWSGGSTYYADSVKGRFTISRDNAKNTVNLQMNSLKPEDTAVYYCNADYWGQGTQVTVSS

>  <polyreactivity (PSR sort gate)>
low polyreactivity

$$$$
>  <ENTRY SEQUENCE>
QVQLVESGGGLVQAGGSLRLSCAASGSIFAYAMGWYRKAPGKEMELVAAISGGSTYYADSVKGRFTISRDNAKNTVYLQMNSVKPEDTAVYYCAADLDDERYYWGQGTQVTVSS

>  <polyreactivity (PSR sort gate)>
low polyreactivity

$$$$
>  <ENTRY SEQUENCE>
QFQLVESGGGLVQAGGSLRLSCAASGLIFGAYDMGWYRQAPGKERELVAAITYSGGRTHYADSVKGRFTISRDNAKNTVYLQMNSLKPDDTAVYYCAAGSSHHFDYEGGYWGKGTQVTVSS

>  <polyreactivity (PSR sort gate)>
low polyreactivity

$$$$
>  <ENTRY SEQUENCE>
QVKLVESGGGLVQAGGSLRLSCAASGSIFSMYTMGWYRQAPGKARELVAAIDRSGGSTYYADSVKGRFTISRDNAKNTVYLQMNSLKPEDTAVYYCATDSVYIYDPYWSSIIEYDYWGQGTQVTVSS

>  <polyreactivity (PSR sort gate)>
low polyreactivity

$$$$

---

# PROTOCOL DESCRIPTION: yeast display, Sf9 membrane polyspecificity reagent, FACS + sequencing; frameworks hold sequencing errors
OBSERVED PROPERTY: polyreactivity (PSR sort gate)

>  <ENTRY SEQUENCE>
QVQLVESGGGLVQAGGSLRLSCAASGSTLVNNAMGWDRQAPGKEREWVAAITFSGGTTYYADSVKGRFTISRDNAKNTVYLQMNSLKPEDTAVYYCAAEIWLEYVGYDYWGQGTQVTVSS

>  <OBSERVED PROPERTY>
polyreactivity (PSR sort gate)

>  <MEAS VALUE>
high polyreactivity

$$$$
>  <ENTRY SEQUENCE>
QVQLVESGGGLVQAGGSLRLSCAASGRTFYIYAMGWYRQAPGKERELVAAITYGGGRTFYADSVKGRFTISRDNAKNTVYLQMNSLKPEDTAVYYCARGDFYYHSRYTYYTSDYWGQGTQVTVSS

>  <OBSERVED PROPERTY>
polyreactivity (PSR sort gate)

>  <MEAS VALUE>
high polyreactivity

$$$$
>  <ENTRY SEQUENCE>
QVQLVESGGGLVQAGGSLRLSCAASGRIFAGYGMGWYRQAPGKERELVAAISSGGSTYYADSVKGRFTISRDNAKNTVYLQMNSLKPEDTAVYYCATDGQSVPDDYYQNVDYDYWGQGTQVTVSS

>  <OBSERVED PROPERTY>
polyreactivity (PSR sort gate)

>  <MEAS VALUE>
low polyreactivity

$$$$
>  <ENTRY SEQUENCE>
QVQLVESGGGLVQAGGSLRLICAASGRTFWNYAMGWYRQAPGKERELVAVIRFSDGSTYYADSVKGRFTISRDNAKNTVYLQMNSLKPEDTAVYYCAAKGPRRWGSGFDYWGQGTQVTVSS

>  <OBSERVED PROPERTY>
polyreactivity (PSR sort gate)

>  <MEAS VALUE>
low polyreactivity

$$$$
>  <ENTRY SEQUENCE>
QVQLQESGGGLVQVGGSLRLSCAASGTIFIYGFLGWNRQAQGKELELVASINLGGITNYADSVKGRFTISRDNAKNTLYLQMISLKTEDTAVYYCAAYVVTGQNYGYWGQGTQVTVSS

>  <OBSERVED PROPERTY>
polyreactivity (PSR sort gate)

>  <MEAS VALUE>
low polyreactivity

$$$$
>  <ENTRY SEQUENCE>
QVQLVESGGGLVQAGGSLRLSCAASGSTYDYNAMGWYIQAPGKERELDAAINSGASTYYGDSVKGRFTISRDNEKNSVYLQMNSMKPEDTAVYYCAKDYPYIGDYWGQCTQVTVSS

>  <OBSERVED PROPERTY>
polyreactivity (PSR sort gate)

>  <MEAS VALUE>
low polyreactivity

$$$$
>  <ENTRY SEQUENCE>
QVQLVESGGGLVQAGGSLRLSCAASGIIFAHYAMGWYRQAPGKERELVAAISRGGSSTYYADSVKGRFTISRDNAKNTVYLQMNSLKPEDTAVDYCAAYGPKVIGPKTSYSSSRYDYWGQGTQVTVSS

>  <OBSERVED PROPERTY>
polyreactivity (PSR sort gate)

>  <MEAS VALUE>
high polyreactivity

$$$$
>  <ENTRY SEQUENCE>
QVQLLESGGGLVQAGGSLRLSCAASGRIFVYYAMGLYRKAPGKERELVATITFGGGSTYYADSVKGRFTISRDNAKNNVYLQMNSLKQEDTAVYYCNAPGFAWYTTKYDYCGQGTQVTVSS

>  <OBSERVED PROPERTY>
polyreactivity (PSR sort gate)

>  <MEAS VALUE>
low polyreactivity

$$$$
>  <ENTRY SEQUENCE>
QVQLVESGGGLVQAGGSLRLSCAASGRTFRYNTMGWYRQAPGTERELVATITGSGGSTYYADSVKGRFTISRDNAKNTVYLQMNSLKPEDTAVYYCNALFRLRAYAEMDYWGQGTQVTVSS

>  <OBSERVED PROPERTY>
polyreactivity (PSR sort gate)

>  <MEAS VALUE>
high polyreactivity

$$$$
>  <ENTRY SEQUENCE>
QVQLVESGGGLVQAGGSHRLSCAASGRIIWWYAMGWYRQAPGKEREFVASISSTGSTSYADSVKGRFTISRDNAKITVYFQMNILKPEDTAVYYCAKEGIRHQDYNLSNDYWGQGTHVTVSS

>  <OBSERVED PROPERTY>
polyreactivity (PSR sort gate)

>  <MEAS VALUE>
low polyreactivity

$$$$
>  <ENTRY SEQUENCE>
QVQLEESGGGLDQAGGSLRLICAASGSIFPSYAMGWYRQAPGKERELVATIGRGGTTNYSDSVKGRFTISRDNAKITVYLLMNSLKPEDTAVYYCNADRIWRYKYGYDYWRQGTQVTVSS

>  <OBSERVED PROPERTY>
polyreactivity (PSR sort gate)

>  <MEAS VALUE>
high polyreactivity

$$$$

All figures here come from the nanobody polyreactivity screen of Harvey et al. (2022).
